tested on: KG-1a cell line; test: KG-1a cell proliferation, CellTiter-Glo assay; format: cell-based; details: Homo sapiens; KG-1a cells, 72 hours post-treatment; read-out: FCA Prolif Cell TiterGlo KG-1a 72 h (IC50)
readout-name: IC50 (nM)
The reply should contain only the number, in nM.

Below, 2 molecules whose answers are already recorded.
[2H]c1cc(C(F)(F)C(=O)NCc2ccc3c(c2)CN(C2CCC(=O)NC2=O)C3=O)ccc1Cl (stereo not drawn) | 18.1
[2H]c1cc(Cl)ccc1C(F)(F)C(=O)NCc1ccc2c(c1)CN(C1CCC(=O)NC1=O)C2=O (stereo not drawn) | 29.9

(Q) For the molecule [2H]c1c([2H])c(C(F)(F)C(=O)NCc2ccc3c(c2)CN(C2CCC(=O)NC2=O)C3=O)c([2H])c([2H])c1Cl (stereo not drawn) , what IC50 is on record?
(A) 31.3
